- experimental system: Human KIR3DL3 (human, UniProt Q8N743 26-410)
- Sequence (Q8N743 26-410 H321N limits assumed): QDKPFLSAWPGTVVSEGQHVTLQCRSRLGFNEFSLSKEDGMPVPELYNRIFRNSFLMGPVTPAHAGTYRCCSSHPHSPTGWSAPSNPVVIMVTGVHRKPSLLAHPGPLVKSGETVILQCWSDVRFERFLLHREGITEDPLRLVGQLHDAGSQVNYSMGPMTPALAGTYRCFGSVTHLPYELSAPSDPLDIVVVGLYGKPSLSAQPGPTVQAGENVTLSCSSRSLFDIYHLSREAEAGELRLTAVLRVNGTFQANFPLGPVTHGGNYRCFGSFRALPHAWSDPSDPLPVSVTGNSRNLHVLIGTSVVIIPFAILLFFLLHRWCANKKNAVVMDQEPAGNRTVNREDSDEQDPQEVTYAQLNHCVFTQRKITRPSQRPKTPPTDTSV
- test description: cell-based or functional assay

binder | unit info | Jurkat IL-2 Luciferase, Fold Activation
KIR3DL3 mAb 574.2.2D8.6.9 (antibody, IgG2b, V domains shown, Mouse hybridoma antibody, IgG2b; also called AVS-3702) VH: DVQLVESGGGLVQPGGSRKLSCAASGFTFSYFGMHWVRRAPEKGLEWVAFISSDSTTIYYTDTVKGRFTISRDNPKNTLFLQMTSLRSEDTAIYYCARFYDGAMDYWGQGTSVTVST VL: DIVMTQSQKFMSTSVGDRVSITCKASQSVRTAVAWYQQKPGQSPKVLIYLASNRHTGVPDRFTGSGSGTDFTLTISNVQSEDLADYFCLQHWNYPLTFGAGTKLELK | fold | 14.9
KIR3DL3 mAb 574.2.1G7.9.9 (antibody, IgG2b, V domains shown, Mouse hybridoma antibody, IgG2b; only variable domains given; also called AVS-3701) VH: ELKLEESGGGLVQPGGSMKLSCVASGFTFSNYWMNWVRQSPEKGLEWIAEIRLKSNNYATHYAESVKGRFTISRDDSKSSVYLQMNNLRAEDTGIFYCTPFYGSSFPYWGQGTLVTVSA VL: DIQMTQTTSSLSASLGDRVTISCRASQDISNYLNWYQQKPDGTVKLLIYYTSILQLGVPPRFSGSGSGTDYSLTISNLEQEDIATYFCQQGNTLPFTFGAGTKVELK | fold | 9.9
KIR3DL3 mAb 574.2.1C7.D2.6.5 (antibody, IgG1, V domains shown, Mouse hybridoma antibody, IgG1; only variable domains given; also called AVS-3698) VH: QVQLQQSGAELMKPGASVKISCKATGYTFSNYWIEWIKQRPGHGLEWIGEILPGSGSTNYNEKFKGKATFTAATSSNTAYMQLSSLTSEDSAVYYCARRVPDYYGSRYYFDYWGQGTTLTVSS VL: NIVMTQSPKSMSMSVGERVTLSCKASENVGIYVSWYQQKPEQSPKLLIYGASNRYTGVPDRFTGSGSATDFTLTISSVQAEDLADYHCGQSYNYPFTFGSGTKLEIK | fold | 8.2
